These entries and their values trace back to patent US20240343803A1.

Items are presented alongside their recorded EC50.
tested on: T1, Full-length human TIGIT on CHO-K1 cells (CHO-K1 human TIGIT) (human, UniProt Q495A1 22-244)
T1 construct: NCBI XP_024309156.1; the entry includes the signal peptide (limits not recoverable); The strain (high, medium, low) is named under assay; also called high expression strain 1D2; medium expression strain 2D10
T1 sequence: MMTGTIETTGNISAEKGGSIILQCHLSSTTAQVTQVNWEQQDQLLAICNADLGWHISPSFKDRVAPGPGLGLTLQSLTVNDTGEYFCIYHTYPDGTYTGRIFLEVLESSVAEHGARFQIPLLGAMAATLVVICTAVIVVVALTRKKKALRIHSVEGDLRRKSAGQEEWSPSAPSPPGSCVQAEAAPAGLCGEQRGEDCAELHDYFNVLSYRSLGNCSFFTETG
measurement notes: cell binding, CHO-K1 human TIGIT high expression strain
observation type: EC50 (nM)

binder="TIGIT-002-H2L3 (antibody, V domains shown, Humanized anti-TIGIT antibody) VH: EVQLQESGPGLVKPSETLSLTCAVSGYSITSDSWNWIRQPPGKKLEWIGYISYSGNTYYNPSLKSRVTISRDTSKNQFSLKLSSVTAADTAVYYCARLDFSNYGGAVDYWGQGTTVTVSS VL: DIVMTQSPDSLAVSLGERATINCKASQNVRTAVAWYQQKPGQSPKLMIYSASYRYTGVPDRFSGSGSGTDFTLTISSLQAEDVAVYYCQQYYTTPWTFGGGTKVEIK" measurement=0.0278
binder="TIGIT-006-H1L1 (antibody, V domains shown, Humanized anti-TIGIT antibody) VH: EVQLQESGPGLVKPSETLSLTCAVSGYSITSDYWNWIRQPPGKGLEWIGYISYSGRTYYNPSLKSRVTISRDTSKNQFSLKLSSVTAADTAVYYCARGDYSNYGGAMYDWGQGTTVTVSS VL: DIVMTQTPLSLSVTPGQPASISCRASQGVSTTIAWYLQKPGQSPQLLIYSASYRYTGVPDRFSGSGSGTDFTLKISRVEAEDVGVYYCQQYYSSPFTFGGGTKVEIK" measurement=0.0702
binder="TIGIT-005-H2L1c (antibody, V domains shown, Humanized anti-TIGIT antibody with NG-site mutation in VL) VH: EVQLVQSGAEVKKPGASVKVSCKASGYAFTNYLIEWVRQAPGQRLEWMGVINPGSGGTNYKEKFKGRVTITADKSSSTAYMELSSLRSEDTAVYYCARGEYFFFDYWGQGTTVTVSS VL: DIVMTQSPDSLAVSLGERATINCKASQHVSDGVAWYQHKPGQSPKLLIYSASYRYTGVPDRFSGSGSGTDFTLTISSLQAEDVAVYYCQQHYNTPHTFGGGTKVEIK" measurement=0.0246
